# System: Haemophilus Influenzae
# TEST_NAME: H. influenzae Activity
# Assay type: cell-based
# MEASUREMENT_CONTEXT: strain ATCC49766
ATTRIBUTE_MEASURED: H. influenzae Activity, strain ATCC49766
Could you keep your reply to the number by itself?

Qu. Lookup: H. influenzae Activity, strain ATCC49766 / Haemophilus Influenzae / CC[C@H]1OC(=O)C[C@@H](O)[C@H](C)[C@@H](O[C@@H]2O[C@H](C)[C@@H](O)[C@H](N(C)C)[C@H]2O)[C@@H](CC=O)C[C@@H](C)C(=O)/C=C/C(C)=C/[C@@H]1CO [OMT, 5-O-mycaminosyltylonolide, reference compound]
Ans. 1.56
